# Tested on: THRa:RXRa (NR concentration 90 nM, RXRa partner concentration 90 nM)
# procedure.details: PBM binding z-score (relative to random genomic background probes); higher = stronger binding; sequences stand for … in GC…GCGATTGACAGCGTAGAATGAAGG
Quick rule: PBM binding z-score of at least 4 means satisfied, below that means not satisfied.

query: Decide: PBM binding z-score of `CAAACTAGGTCAAGGTCAAGGTCGGTTTGTGCCA` >= 4?
result: satisfied

query: Decide: PBM binding z-score of `CCGGCTAGGTCATGGTCAGCTAATCTACAGTATG` >= 4?
result: not satisfied

query: Decide: PBM binding z-score of `ACAGACAGGTGATGAAGGTAACTCGGGCTATCAT` >= 4?
result: not satisfied

###

Please go through the items and note down their PBM binding z-score.
# Test system: PPARg homodimer (NR concentration 180 nM)
# procedure.details: PBM binding z-score (relative to random genomic background probes); higher = stronger binding; sequences stand for … in GC…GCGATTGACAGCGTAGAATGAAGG
Numbers only.

ATCTCAAGGTAAGACTCAGTTCAGTGAAGAACGC ... 0.782
CAAACTAGGTCACGAAATGTCAAAGTCGAATGAC ... 3.3
GCTAATAGTTGAAAGGGCAACCGAATGATTCTCG ... 0.836
CCTGCTAGGTCATGGTCAGCTACTCTACAGTATG ... 1.41
CCTCCTGGGCCATCAGGTCATTGATATCAACGTT ... 0.643

List PBM binding z-score for every entry below, keeping the order given.
1. CCTATTATTTGACCATAAGGGCAACCGAAGCTCG
2. GCTGCTAGGTCAACTGATGGTCAGCGAAAGCTCG

result:
1: 3.21; 2: 1.64

List PBM binding z-score for every entry below, keeping the order given.
1. TCGAGTACGTTAGGGGCATTCAGAATGGCGTCGA
2. AGTCAAAGTTCACTAGGTGACGTAAGATTCAGCT
3. CTCGAAAGGTCGGTTGAGGTTAGTATACGGATAA
4. TCATATAGGTAAACAGGTGGAAGTCCGTAAGTTA

result:
-0.704
3.29
1.47
1.12

List PBM binding z-score for every entry below, keeping the order given.
1. ATCTCTAGGAAAAGATAGTTCAGTGAATGCAAAT
2. CCTTGCGGGTCAAGGTTATAGCACGGGTGGTACG
3. TCTAGTTGGTCAAAGGTCACTCACTCGAAATGCG

result:
[-0.459, 2.01, 4.97]

###

Please go through the items and note down their PBM binding z-score.
# Test system: RXRa homodimer (NR concentration 180 nM)
# procedure.details: PBM binding z-score (relative to random genomic background probes); higher = stronger binding; sequences stand for … in GC…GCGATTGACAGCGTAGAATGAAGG
Give bare numbers.

Below are worked cases with known answers.
AATACAGGGTCGTCGTAGGCCAGAGTACGCACAG ... 2.81
GCTGCTAGGTCAACGGATGGTCAGCTAAAGCTCG ... 2.82
TCAGACAGGTGAAGGTAACTCCGGTACGCAGTCG ... 1.11
TCTAGCAGCCCAGAGGGTCACTCAAGAGGTACGG ... 2.23
ATCTCTAGGTAACAAGTCCAGTGAAAGAGAGGAC ... 0.552
GCGACTGGGGGAAAGCAGGTTACCATAAGGTTGG ... 0.696
TCTATTAGTTAAAGGGCAACCGACGAGTCCGTTT ... 1.28
GCATATAGGTAATACAAGGTGAAATTCCGATTGT ... 0.614
CAGCCCAGGTCAGGGCCAGTATAGGAGGAACGTT ... 2.25
TCATATAGGTAAACAGGTGAAAGTGCGTAAGTTA ... 1.17

List PBM binding z-score for every entry below, keeping the order given.
1. AGAATGAGGTTAAAATCAGGGAAACAGAATACAT
2. TAACCTAGGTCATGCGGGCCAGTATAGTGTCGGC
3. CCTAGTTGGTCAAAGTCACACACGCTATAGGTAC
4. TCGAGGAGGTTAGTCGGGGCATTCAGCCAACATA
5. GATCCAGGGTCAAGGCCAGAGTACGCGTATTGAT
6. GCTGCTAGGTCAGGGTGGTCAGCTAACGGGTACG

result:
2.62
3.58
0.561
0.67
6.11
1.41

List PBM binding z-score for every entry below, keeping the order given.
1. GCGACTGGGGCAAAGCAGGTTACCGTAAGGTTGG
2. CGAACGAGGGCATGCGTTGATAGCAAATGCCGAT
3. GCTGCTAGGTCAACTGATCGTCAGCTAAAGCTCG
4. CGTCCAAGGTCAATGTCAGTGAAAGAGACTCGAA
5. ATCGAAAGGGCGAAGGTGAGTATACCCACCCGAA

result:
[0.234, 0.91, 2.8, 4.79, 1.59]

List PBM binding z-score for every entry below, keeping the order given.
1. TCGTATAGGTAAATGCTAGGTGAAAGTCCGATCT
2. CCTACTGGGCCAAAGCTCATTGATTCCAATGCTC
3. CGAACTAGGTCATTGACAGGACAGTTAATAGTAA
4. GCTAGTTGGTCAGTGAAAGGTCACACACCGGTCG
5. TAGCCTAGGTCATGGGCCAGTATGCCACGCGAAC

result:
1: 0.407; 2: -0.521; 3: 2.86; 4: 5.62; 5: 3.54
